Papp values for the molecules below.
# Assay notes: Apparent permeability of compound in MDCK-MDR1 cells
# Assay type: ADME, cell-based, Canis lupus familiaris
# Test parameters: dog
Numbers only here, please. The scale is ×10⁻⁶ cm/s.

Example results:
- Molecule: "Cl.c1coc(CNc2ncnc3ccccc23)c1"
  Scale unit: "×10⁻⁶ cm/s"
  Papp: 16.3
- Molecule: "Cc1oc2ncnc(NCc3ccco3)c2c1C"
  Scale unit: "×10⁻⁶ cm/s"
  Papp: 16.3
- Molecule: "c1coc(CNc2ccnc3ccnn23)c1"
  Scale unit: "×10⁻⁶ cm/s"
  Papp: 16.3
- Molecule: "c1coc(CNc2ncnc3sccc23)c1"
  Scale unit: "×10⁻⁶ cm/s"
  Papp: 16.3
- Molecule: "c1coc(CNc2ncnc3cc[nH]c23)c1"
  Scale unit: "×10⁻⁶ cm/s"
  Papp: 16.3

[Q] Given the molecule c1coc(CNc2ncnc3cn[nH]c23)c1 , what is its reported Papp?
[A] 16.3

[Q] Given the molecule Clc1nc(NCc2ccco2)c2cc[nH]c2n1 , what is its reported Papp?
[A] 16.3

[Q] Given the molecule Clc1nc(NCc2ccco2)c2[nH]ccc2n1 , what is its reported Papp?
[A] 16.3

---

# Assay notes: Drug degradation in human liver microsomes at 2 uM measured up to 60 mins by RF-MS analysis
# Format: ADME, Tissue, Microsome
# Test parameters: read-out: Drug degradation
metabolised at 1 h, 2 µM values for the compounds below.

- Entry smiles: "c1coc(CNc2ncnc3ccsc23)c1"
  Reported result: "> 50%"

Continue with the next compound.
[Q] Given the compound Cc1oc2ncnc(NCc3ccco3)c2c1C , what is its reported metabolised at 1 h, 2 µM?
[A] > 50%

---

# Assay notes: Stability in human plasma assessed as parent compound remaining at 2 uM measured up to 120 mins by RF-MS analysis
# Format: ADME, cell-free
# Test parameters: read-out: Stabilty
Assay metric: remaining at 2 h, 2 µM (%)
Numbers only here, please. The scale is %.

Example results:
- Entry smiles: "Clc1nc(NCc2ccco2)c2[nH]ccc2n1"
  Reported result: 83
- Entry smiles: "Clc1cc(NCc2ccco2)c2nc[nH]c2n1"
  Reported result: 83
- Entry smiles: "Cc1oc2ncnc(NCc3ccco3)c2c1C"
  Reported result: 83
- Entry smiles: "c1coc(CNc2ncnc3cc[nH]c23)c1"
  Reported result: 83
- Entry smiles: "Cl.c1coc(CNc2ncnc3ccccc23)c1"
  Reported result: 83

[Q] Given the compound c1coc(CNc2ncnc3cn[nH]c23)c1 , what is its reported remaining at 2 h, 2 µM?
[A] 83

[Q] Given the compound c1coc(CNc2ncnc3[nH]nnc23)c1 , what is its reported remaining at 2 h, 2 µM?
[A] 83

[Q] Given the compound c1coc(CNc2ncnc3occc23)c1 , what is its reported remaining at 2 h, 2 µM?
[A] 83

[Q] Given the compound c1coc(CNc2ncnc3[nH]cnc23)c1 , what is its reported remaining at 2 h, 2 µM?
[A] 83

[Q] Given the compound Clc1nc(NCc2ccco2)c2cc[nH]c2n1 , what is its reported remaining at 2 h, 2 µM?
[A] 83

[Q] Given the compound Clc1nc(NCc2ccco2)c2[nH]cnc2n1 , what is its reported remaining at 2 h, 2 µM?
[A] 83

[Q] Given the compound c1coc(CNc2ncnc3ccsc23)c1 , what is its reported remaining at 2 h, 2 µM?
[A] 83
